- Study target: serotonin 2 receptor (Rattus norvegicus, UniProt P14842)
- Sequence (P14842 whole entry): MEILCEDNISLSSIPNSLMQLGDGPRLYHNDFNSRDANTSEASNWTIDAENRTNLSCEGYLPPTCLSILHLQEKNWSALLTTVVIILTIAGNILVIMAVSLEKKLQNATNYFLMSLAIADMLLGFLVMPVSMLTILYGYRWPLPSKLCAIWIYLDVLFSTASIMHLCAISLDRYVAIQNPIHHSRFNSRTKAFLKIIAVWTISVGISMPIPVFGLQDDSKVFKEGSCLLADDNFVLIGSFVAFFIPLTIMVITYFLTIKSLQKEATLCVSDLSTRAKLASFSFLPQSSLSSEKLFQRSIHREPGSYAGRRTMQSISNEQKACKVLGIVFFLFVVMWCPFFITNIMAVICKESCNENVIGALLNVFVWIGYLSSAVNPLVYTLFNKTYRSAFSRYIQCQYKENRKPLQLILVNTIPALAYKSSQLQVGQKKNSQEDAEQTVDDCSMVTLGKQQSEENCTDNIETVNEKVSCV
- Method notes: Binding test on [3H] ketanserin (serotonin 2 receptor)
- Experimental context: [3H] ketanserin 0.3 nM, receptor fraction of rat cerebral cortex; read-out: 5HT2
pKi: −log10 of the molar value.
The label depends only on pKi: yes (1) if it is at least 8, no (0) if it is smaller.

Consider the following illustrative entries.
{"Molecule": "Fc1ccc(CCCN2CCC(N3CCc4ccccc43)CC2)cc1", "Study target": "serotonin 2 receptor (Rattus norvegicus, UniProt P14842)", "Assigned category": "no (0)"}
{"Molecule": "c1ccc2c(c1)CCN2C1CCN(CCc2nccs2)CC1", "Study target": "serotonin 2 receptor (Rattus norvegicus, UniProt P14842)", "Assigned category": "no (0)"}
{"Molecule": "Fc1ccc(CCN2CCC(N3CCc4ccc(Cl)nc43)CC2)c(F)c1", "Study target": "serotonin 2 receptor (Rattus norvegicus, UniProt P14842)", "Assigned category": "yes (1)"}

Quick check, pKi >= 8? CC(=O)NCc1ccc2ccn(C3CCN(CCc4cccnc4)CC3)c2c1
no (0)

Quick check, pKi >= 8? OC1(c2ccc3c(c2)N(C2CCN(CCc4ccc(F)cc4)CC2)CC3)CCCC1
no (0)

Quick check, pKi >= 8? Fc1cccc(CCN2CCC(N3CCc4ccccc43)CC2)c1
no (0)

Quick check, pKi >= 8? CCN1CCC(N2CC(CCc3cccc(F)c3)c3ccccc32)CC1 (stereo not shown)
no (0)

Quick check, pKi >= 8? OC(c1ccc2c(c1)N(C1CCN(CCc3ccc(F)cc3)CC1)CC2)c1ccccn1 (stereo not shown)
yes (1)

Quick check, pKi >= 8? CC(=O)NCc1ccc2c(c1)N(C1CCN(CCc3ccc(F)cc3F)CC1)CC2
yes (1)

Quick check, pKi >= 8? OC(c1ccc2c(c1)N(C1CCN(CCc3ccc(F)cc3)CC1)CC2)c1ncccn1 (stereo not shown)
yes (1)

Quick check, pKi >= 8? CNCc1ccc2c(c1)N(C1CCN(CCc3ccc(F)cc3)CC1)CC2
no (0)

Quick check, pKi >= 8? OCCCc1ccc2ccn(C3CCN(CCc4ccc(F)cc4)CC3)c2c1
no (0)

Quick check, pKi >= 8? CS(=O)(=O)Oc1ccc2ccn(C3CCN(CCc4ccc(F)cc4)CC3)c2c1
no (0)

Quick check, pKi >= 8? COc1ccc(CCN2CCC(C3CCc4ccccc43)CC2)cc1 (stereo not shown)
no (0)

====

pKi listing for selected compounds.
- Study target: serotonin 2 receptor (Rattus norvegicus, UniProt P14842)
- Method notes: Binding test on [3H] ketanserin (serotonin 2 receptor)
- Experimental context: [3H] ketanserin 0.3 nM, receptor fraction of rat cerebral cortex; read-out: 5HT2
Counter-ions that a name gives are not always drawn.
FYI, pKi means -log10 of a concentration in mol per litre.

{"Compound": "Fc1ccc(CCN2CCC(N3CCc4ccccc43)CC2)c(F)c1 [Example 10]", "pKi": 8.22}
{"Compound": "OCc1ccc2ccn(C3CCN(CCc4ccccc4F)CC3)c2c1 [Example 391]", "pKi": 8.17}
{"Compound": "CS(=O)(=O)Nc1cc2c(cc1Cl)CCN2C1CCN(CCc2ccc(F)cc2)CC1 [Example 218]", "pKi": 7.93}

Now take the following compound into account.
What value of measured pKi is listed for COc1ccc2c(c1)C(N1CCN(CC(=O)c3ccc(F)cc3)CC1)CCC2 (stereo not shown) [Example 281, Hydrochloride] ?
7.95
